Parameter IC50, tested on Coagulation factor X (Homo sapiens, UniProt P00742), listed per item.
Sequence (P00742 41-179 limits assumed): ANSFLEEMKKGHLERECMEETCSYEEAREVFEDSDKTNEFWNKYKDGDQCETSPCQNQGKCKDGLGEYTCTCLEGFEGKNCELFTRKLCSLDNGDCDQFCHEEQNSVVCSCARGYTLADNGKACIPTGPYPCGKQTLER
Sequence (P00742 235-488 limits assumed): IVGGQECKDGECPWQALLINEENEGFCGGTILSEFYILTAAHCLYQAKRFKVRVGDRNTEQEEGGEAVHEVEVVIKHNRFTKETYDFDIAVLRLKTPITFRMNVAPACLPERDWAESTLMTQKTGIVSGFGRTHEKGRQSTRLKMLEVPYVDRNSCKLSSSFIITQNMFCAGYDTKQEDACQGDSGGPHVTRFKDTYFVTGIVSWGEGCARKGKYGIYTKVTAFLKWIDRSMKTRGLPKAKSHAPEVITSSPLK
recorded_endpoint: IC50 (nM)

A: COC(=O)C(Cc1cccc(C(=N)N)c1)C(/C=C/c1ccccc1)NC(=O)c1ccc(-c2cccc(C)c2)cc1 (stereo not drawn)
B: CCc1ccc(-c2ccc(C(=O)NC(/C=C/c3ccccc3)C(Cc3cccc(C(=N)N)c3)C(=O)OC)cc2)cc1 (stereo not drawn)
C: COC(=O)C(Cc1cccc(C(=N)N)c1)C(CCc1ccccc1)NC(=O)c1ccc(-c2ccccc2)cc1 (stereo in doubt; 8b)
**Query** Order the entries above by descending IC50. In your reply, arrange the labels in the requested order.
**Result** B, C, A
